Numbers sourced from the OPERA property sets (Mansouri et al. 2018).

With a cut-off of 40 °C, any melting point strictly below it is called YES; any melting point meeting it or above is called NO.

compound: CCCCCCCCCOC(C)=O
groupLabel: YES

compound: CC(C)C1CCCCC1
groupLabel: YES

compound: CC1(C)OC[C@@H]2O[C@@]3(C(=O)O)OC(C)(C)O[C@H]3[C@@H]2O1
groupLabel: NO

compound: Oc1cccc(Cl)c1Cl
groupLabel: NO

compound: O=C(O)c1cc([N+](=O)[O-])ccc1Cl
groupLabel: NO

compound: COCCOC(C)=O
groupLabel: YES

compound: CC(C)(C)C(O)C(Oc1ccc(Cl)cc1)n1cncn1 (stereo unspecified)
groupLabel: NO

compound: c1ccc2[nH]cnc2c1
groupLabel: NO

compound: CN1C2CCC1CC(=O)C2
groupLabel: NO

compound: COC(=O)c1ccccc1C(=O)O
groupLabel: NO

compound: CCCCCC(=O)CCCCC
groupLabel: YES

---

smilesData: C=CCC1CCCC1
boiling point / °C: 125
--
smilesData: CC[C@H]1CC[C@H](C)C1
boiling point / °C: 121
--
smilesData: CCOC(=O)c1ccc2ccccc2c1
boiling point / °C: 308
--
smilesData: CC(C)N=C=O
boiling point / °C: 74.5
--
smilesData: c1ccc2sccc2c1
boiling point / °C: 221

---

measurementLabel: log10 biodegradation half-life (days)

compound: Cc1ccc(C)cc1
reportedValue: 0.954

compound: CC(C)CC(C)C
reportedValue: 1.68

compound: c1ccc(-c2ccccc2)cc1
reportedValue: 1.49

compound: CC(C)CCC(C)(C)C
reportedValue: 1.26

compound: CCC1CCCC1
reportedValue: 1.18

compound: C1=Cc2ccccc2C1
reportedValue: 0.477

compound: CC1(C)CCCC1
reportedValue: 1.28

compound: CCc1ccc(C)cc1C
reportedValue: 0.602

compound: CCCC(C)(C)C
reportedValue: 0.845

compound: Cc1ccccc1
reportedValue: 0.301

compound: c1ccc2sccc2c1
reportedValue: 1.4

compound: CC(C)c1ccccc1
reportedValue: 1.18

compound: CCCCCCCCCCCCCCCCCC
reportedValue: 1.32

compound: CCCCCCCCCCCCCCCCCCCC
reportedValue: 1.4

compound: CCCCC
reportedValue: 0.699

compound: CCCC(C)C(C)C (centres undefined)
reportedValue: 1.42

compound: Cc1c2ccccc2cc2ccccc12
reportedValue: 2.42

compound: c1cc2ccc3ccc4ccc5cccc6c(c1)c2c3c4c56
reportedValue: 2.75

compound: CCC1CCCCC1
reportedValue: 0.301

compound: CC(C)CCC(C)C
reportedValue: 1.4

compound: Cc1ccc(-c2ccccc2)cc1
reportedValue: 1.58

compound: CCCCCCCCCCC
reportedValue: 0.845

compound: CCC(C)CC(C)C (centres undefined)
reportedValue: 0.845

compound: CCCC(C)CCC
reportedValue: 0.602

compound: Cc1cc(C)cc(C)c1
reportedValue: 0.477

compound: CCCCCCCCCCCCCCCCCCCCCCCCCCCCCC
reportedValue: 2.24

compound: c1ccc2c(c1)ccc1c3ccccc3ccc21
reportedValue: 2.58

compound: CCc1ccccc1C
reportedValue: 0.602

compound: CCCCCC
reportedValue: 0.954

---

Classification field: enter fulfilled for melting point values not below 30 °C, not fulfilled for values below it.

molecule: CC(O)C(C)O (racemic)
groupLabel: not fulfilled
//
molecule: NCCCNCCCCNCCCN
groupLabel: not fulfilled
//
molecule: CCOc1ccc(C=O)cc1OC
groupLabel: fulfilled
//
molecule: CC(=O)OCC1=C(C(=O)O)N2C(=O)[C@@H](NC(=O)Cc3cccs3)[C@H]2SC1
groupLabel: fulfilled
//
molecule: CC(C)(C)C(=O)C=Cc1ccccc1
groupLabel: fulfilled
//
molecule: CNc1ccc(NCCO)c2c1C(=O)c1ccccc1C2=O
groupLabel: fulfilled
//
molecule: C=C(C)OC(C)=O
groupLabel: not fulfilled
//
molecule: FC(F)(F)C(F)(F)F
groupLabel: not fulfilled
